Reference source: PubChem BioAssay AID493040

TARGET_SYSTEM: Serine/threonine-protein kinase PLK3 (Homo sapiens)
PARAMETER: Ki

compound=COc1cc2ncn(-c3cc(OCc4ccccc4C(F)(F)F)c(C(N)=O)s3)c2cc1OC parameter=Ki endpoint_value="7.94 nM"

* * *

TARGET_SYSTEM: Rho-associated protein kinase 2 (Homo sapiens)
TEST_DETAILS: PubChem AID 493040
RECORDED_CONDITIONS: kinase panel binding, pKi; ROCK2
The source made the active and inactive calls. How the calls were made is not given here.
Labels: y = active, n = inactive

compound=CCCCNc1cc(-c2c[nH]c3ncccc23)ncn1 answer_label=y
compound=CCCCOc1cc(-c2ccncc2)cc2[nH]nc(N)c12 answer_label=y
compound=Nc1n[nH]c2ccc(-c3cc(Cc4ccccc4)no3)cc12 answer_label=y
compound=CC(C)(CO)CCCNc1cc(-c2c[nH]c3ncccc23)cc(Cl)n1 answer_label=y
compound=CN(C)c1cc(-c2ccncc2)cc2[nH]nc(N)c12 answer_label=y
compound=O=C1Nc2ccccc2Nc2cc(-c3ccncc3Cl)ccc21 answer_label=y
compound=O=[N+]([O-])c1cccc(-c2nnc3ccc(N4CCCCC4)nn23)c1 answer_label=n
compound=O=C1Nc2ccccc2Nc2cc(-c3ccncc3)ccc21 answer_label=y
compound=O=C(NCc1ccccc1)c1c[nH]n2c(=O)cc(-c3ccncc3)nc12 answer_label=n
compound=CN(Cc1ccccc1)c1cc(-c2c[nH]c3ncccc23)cc(Cl)n1 answer_label=y
compound=Cc1c(C#N)c2nc3ccccc3n2c(=O)c1=CO answer_label=n
compound=COCCNc1cc(-c2c[nH]c3ncccc23)cc(Cl)n1 answer_label=y
compound=Cc1[nH]nc2ccc(-c3cncc(OCCN(C)S(C)(=O)=O)c3)cc12 answer_label=y
compound=NC(=O)c1ccc(-c2nc(-c3ccc4c(c3)OCO4)c(-c3ccccn3)[nH]2)cc1 answer_label=n
compound=CN(C)CCCOc1cc(-c2ccncc2)cc2[nH]nc(N)c12 answer_label=y
compound=CCOC(=O)c1cn(-c2ccc(O)cc2C)c2cc(-c3ccncc3)ccc2c1=O answer_label=y
compound=O=c1cc(-c2ccc(F)cc2)nc2c(-c3ccc(F)cc3)c[nH]n12 answer_label=n
compound=Cc1cccc(CNc2cc(-c3c[nH]c4ncccc34)cc(Cl)n2)c1C answer_label=y
compound=Fc1cccc(-c2c[nH]c3ncccc23)c1 answer_label=y
compound=c1ccc(Cn2cc(-c3ccc4[nH]nc(-c5ccccc5)c4c3)nn2)cc1 answer_label=y
compound=NC(=O)c1ccc(-c2ccnc(N)n2)cc1N1CCCCC1 answer_label=y
compound=COc1cc2ncn(-c3cc(OCc4ccccc4C(F)(F)F)c(C(N)=O)s3)c2cc1OC answer_label=n
compound=Cc1sc2[nH]c(=O)n3nc(-c4ccncc4)nc3c2c1C answer_label=y

* * *

TARGET_SYSTEM: Cyclin-dependent kinase 5 (Homo sapiens)
pKi: −log10 of the molar value.
PARAMETER: pKi

compound=O=C(O)c1ccccc1Nc1ncnc(Nc2ccc3cn[nH]c3c2)n1 endpoint_value=6.60

* * *

TARGET_SYSTEM: Rho-associated protein kinase 2 (Homo sapiens)
TEST_DETAILS: PubChem AID 493040
RECORDED_CONDITIONS: kinase panel binding, pKi; ROCK2
The source made the active and inactive calls. How the calls were made is not given here.
PARAMETER: Ki

compound=O=C(O)c1ccccc1Nc1ncnc(Nc2ccc3cn[nH]c3c2)n1 target_system="Rho-associated protein kinase 2 (Homo sapiens)" endpoint_value="> 5010 nM (inactive)"
compound=CCCCNc1c(-c2ccc3[nH]ncc3c2)nc2ncccn12 target_system="Rho-associated protein kinase 2 (Homo sapiens)" endpoint_value="63.1 nM"
compound=O=c1cc(-c2ccncc2)nc(NCc2cc(F)cc(F)c2)[nH]1 target_system="Rho-associated protein kinase 2 (Homo sapiens)" endpoint_value="794 nM"
compound=NC(=O)c1ccc(-c2ccncc2)cc1NCc1cccc(F)c1 target_system="Rho-associated protein kinase 2 (Homo sapiens)" endpoint_value="5010 nM"
compound=CCNC(=O)c1[nH]nc(-c2cc(Cl)c(O)cc2O)c1-c1ccc(OC)cc1 target_system="Rho-associated protein kinase 2 (Homo sapiens)" endpoint_value="2510 nM"
compound=CCCCNc1cc(-c2ccncc2)cc2[nH]nc(N)c12 target_system="Rho-associated protein kinase 2 (Homo sapiens)" endpoint_value="63.1 nM"
compound=CCOC(=O)c1c[nH]n2c(=O)cc(-c3ccncc3)nc12 target_system="Rho-associated protein kinase 2 (Homo sapiens)" endpoint_value="2000 nM"
compound=CNCCOc1cncc(-c2ccc3n[nH]c(C)c3c2)c1 target_system="Rho-associated protein kinase 2 (Homo sapiens)" endpoint_value="20 nM"
compound=O=c1cc(-c2cccc(F)c2)nc2c(-c3ccc(F)cc3)c[nH]n12 target_system="Rho-associated protein kinase 2 (Homo sapiens)" endpoint_value="> 7940 nM (inactive)"
compound=COc1ccccc1C(=O)Nc1n[nH]c2ccc(-c3cn(Cc4ccccc4)nn3)cc12 target_system="Rho-associated protein kinase 2 (Homo sapiens)" endpoint_value="> 7940 nM (inactive)"
compound=c1cnc2[nH]cc(-c3ccnc(NCC4CCCCC4)n3)c2c1 target_system="Rho-associated protein kinase 2 (Homo sapiens)" endpoint_value="6.31 nM"
compound=Nc1n[nH]c2ccc(-c3nnn(Cc4ccccc4)c3C3CC3)cc12 target_system="Rho-associated protein kinase 2 (Homo sapiens)" endpoint_value="20 nM"
compound=Cc1cccc(CNc2cc(-c3c[nH]c4ncccc34)ncn2)c1 target_system="Rho-associated protein kinase 2 (Homo sapiens)" endpoint_value="12.6 nM"
compound=CC(C)(C)Oc1cc(-c2ccncc2)cc2[nH]nc(N)c12 target_system="Rho-associated protein kinase 2 (Homo sapiens)" endpoint_value="50.1 nM"
compound=O=C1Nc2ccccc2Nc2cc(-c3ccncc3F)ccc21 target_system="Rho-associated protein kinase 2 (Homo sapiens)" endpoint_value="126 nM"
compound=c1ccc(Cn2cc(-c3ccc4[nH]nc(-c5cn(Cc6ccccc6)nn5)c4c3)nn2)cc1 target_system="Rho-associated protein kinase 2 (Homo sapiens)" endpoint_value="126 nM"
compound="COCC(C)Nc1cc(-c2c[nH]c3ncccc23)cc(Cl)n1 (stereo not drawn)" target_system="Rho-associated protein kinase 2 (Homo sapiens)" endpoint_value="7.94 nM"
compound=O=C(O)c1ccccc1Nc1ccnc(NCc2cccc(O)c2)n1 target_system="Rho-associated protein kinase 2 (Homo sapiens)" endpoint_value="> 7940 nM (inactive)"
compound=Cn1cc(-c2ccccc2)c2nc(-c3ccncc3)cc(=O)n21 target_system="Rho-associated protein kinase 2 (Homo sapiens)" endpoint_value="3160 nM"
compound=Cc1cc(=O)n2[nH]cc(C(=O)NCc3ccccc3)c2n1 target_system="Rho-associated protein kinase 2 (Homo sapiens)" endpoint_value="2510 nM"
compound=NC(=O)c1ccccc1Nc1nc(Nc2ccccc2)ncc1C(F)(F)F target_system="Rho-associated protein kinase 2 (Homo sapiens)" endpoint_value="501 nM"
compound=CCCCCCCCCCCCOc1ccc(N=C(N)N)cc1N=C(N)N target_system="Rho-associated protein kinase 2 (Homo sapiens)" endpoint_value="3160 nM"
compound=Cc1ccc(Nc2nccc(Nc3ccccc3C(=O)O)n2)cc1F target_system="Rho-associated protein kinase 2 (Homo sapiens)" endpoint_value="> 7940 nM (inactive)"

* * *

TARGET_SYSTEM: Serine/threonine-protein kinase Sgk2 (Homo sapiens) (UniProt Q9HBY8)
Sequence (Q9HBY8 whole entry, looked up): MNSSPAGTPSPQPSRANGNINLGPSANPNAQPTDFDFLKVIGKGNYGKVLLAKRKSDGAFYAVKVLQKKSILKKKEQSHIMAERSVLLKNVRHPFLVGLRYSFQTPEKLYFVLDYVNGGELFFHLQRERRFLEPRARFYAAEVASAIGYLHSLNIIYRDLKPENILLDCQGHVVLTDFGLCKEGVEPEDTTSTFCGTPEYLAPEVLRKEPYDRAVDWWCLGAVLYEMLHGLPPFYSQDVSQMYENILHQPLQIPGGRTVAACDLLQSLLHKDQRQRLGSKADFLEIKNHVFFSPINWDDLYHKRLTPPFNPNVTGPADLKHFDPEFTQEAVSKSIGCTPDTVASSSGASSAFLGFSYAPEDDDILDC
TEST_DETAILS: PubChem AID 493040
RECORDED_CONDITIONS: kinase panel binding, pKi; SGK
Calls of active or inactive are those of the source. The rule behind the calls is not given here.
PARAMETER: Ki

compound=CCn1c(=C(C#N)C(=O)O)sc(=CNc2ccccc2)c1=O target_system="Serine/threonine-protein kinase Sgk2 (Homo sapiens) (UniProt Q9HBY8)" parameter=Ki endpoint_value="3.98 µM"
compound=NC(=O)c1cccc2[nH]c(-c3cccc(NCCN4CCCC4)n3)nc12 target_system="Serine/threonine-protein kinase Sgk2 (Homo sapiens) (UniProt Q9HBY8)" parameter=Ki endpoint_value="> 10 µM (inactive)"
compound=O=C1N=c2ccc(Br)cc2=C1c1sc(=S)[nH]c1O target_system="Serine/threonine-protein kinase Sgk2 (Homo sapiens) (UniProt Q9HBY8)" parameter=Ki endpoint_value="2 µM"
compound=Cc1c(C#N)c2nc3ccccc3n2c(=O)c1=CO target_system="Serine/threonine-protein kinase Sgk2 (Homo sapiens) (UniProt Q9HBY8)" parameter=Ki endpoint_value="> 10 µM (inactive)"
compound=Oc1ccc(-c2nc(-c3ccc(F)cc3)c(-c3ccncc3)[nH]2)cc1 target_system="Serine/threonine-protein kinase Sgk2 (Homo sapiens) (UniProt Q9HBY8)" parameter=Ki endpoint_value="> 6.31 µM (inactive)"
compound=CCCCCCCCCCCCOc1ccc(N=C(N)N)cc1N=C(N)N target_system="Serine/threonine-protein kinase Sgk2 (Homo sapiens) (UniProt Q9HBY8)" parameter=Ki endpoint_value="> 10 µM (inactive)"

* * *

TARGET_SYSTEM: UniProtKB P00533
Sequence (P00533 whole entry, looked up): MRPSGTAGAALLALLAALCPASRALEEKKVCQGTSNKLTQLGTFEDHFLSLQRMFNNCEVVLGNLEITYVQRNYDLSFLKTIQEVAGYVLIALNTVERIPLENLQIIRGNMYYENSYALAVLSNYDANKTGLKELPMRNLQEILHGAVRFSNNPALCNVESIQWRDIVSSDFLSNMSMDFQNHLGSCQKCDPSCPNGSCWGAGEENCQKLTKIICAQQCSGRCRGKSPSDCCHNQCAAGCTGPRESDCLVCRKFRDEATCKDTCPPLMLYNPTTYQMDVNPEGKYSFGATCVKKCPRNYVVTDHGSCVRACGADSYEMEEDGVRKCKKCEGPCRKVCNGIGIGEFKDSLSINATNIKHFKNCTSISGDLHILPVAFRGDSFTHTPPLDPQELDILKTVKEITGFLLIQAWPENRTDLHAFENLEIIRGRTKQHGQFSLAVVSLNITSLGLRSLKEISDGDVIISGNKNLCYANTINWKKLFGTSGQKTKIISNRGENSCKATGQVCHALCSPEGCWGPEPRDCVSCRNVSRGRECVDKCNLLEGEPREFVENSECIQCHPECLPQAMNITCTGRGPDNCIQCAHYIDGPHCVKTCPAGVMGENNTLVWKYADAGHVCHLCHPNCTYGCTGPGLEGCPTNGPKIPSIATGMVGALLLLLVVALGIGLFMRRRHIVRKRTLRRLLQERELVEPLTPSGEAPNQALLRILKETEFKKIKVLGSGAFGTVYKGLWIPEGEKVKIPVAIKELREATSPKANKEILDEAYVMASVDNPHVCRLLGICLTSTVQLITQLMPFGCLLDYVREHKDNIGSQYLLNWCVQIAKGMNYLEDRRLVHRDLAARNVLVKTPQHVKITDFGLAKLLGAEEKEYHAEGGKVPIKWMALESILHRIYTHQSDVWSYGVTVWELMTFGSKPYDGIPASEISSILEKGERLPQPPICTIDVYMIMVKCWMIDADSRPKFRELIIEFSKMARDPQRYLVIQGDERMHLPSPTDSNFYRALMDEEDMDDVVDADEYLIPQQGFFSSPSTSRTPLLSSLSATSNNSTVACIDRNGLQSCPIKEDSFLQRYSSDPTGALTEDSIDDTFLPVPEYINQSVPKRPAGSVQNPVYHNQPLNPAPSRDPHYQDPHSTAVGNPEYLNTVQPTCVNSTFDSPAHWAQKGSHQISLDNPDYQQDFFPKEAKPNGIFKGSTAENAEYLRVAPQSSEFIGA
PARAMETER: Ki

compound=COc1cc2ncn(-c3cc(OCc4ccccc4C(F)(F)F)c(C(N)=O)s3)c2cc1OC target_system="UniProtKB P00533" parameter=Ki endpoint_value="251 nM"
